system_under_test: Y2 receptors (Homo sapiens, UniProt P49146)
Construct: endogenous in cells; host or cells: KAN-Ts cells (membranes)
Sequence (P49146 1-381): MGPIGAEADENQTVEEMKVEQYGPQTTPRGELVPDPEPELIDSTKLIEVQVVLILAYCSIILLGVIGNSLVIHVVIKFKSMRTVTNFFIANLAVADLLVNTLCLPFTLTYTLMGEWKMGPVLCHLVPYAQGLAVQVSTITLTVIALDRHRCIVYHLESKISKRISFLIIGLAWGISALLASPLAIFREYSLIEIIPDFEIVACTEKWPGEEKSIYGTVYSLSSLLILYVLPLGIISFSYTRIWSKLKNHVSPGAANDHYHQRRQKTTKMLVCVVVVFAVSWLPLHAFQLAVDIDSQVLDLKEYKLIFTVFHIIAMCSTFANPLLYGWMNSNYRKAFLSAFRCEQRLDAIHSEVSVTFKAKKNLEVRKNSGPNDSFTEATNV
protocol: Radioligand binding assay ([125I]PYY, KAN-Ts cell membranes)
run_conditions: Table 2, [125I]PYY 80 pM, average of results, read-out: IC50
Could you please report measured IC50 for the items listed next?
State the answer as a number, implicitly in nM.

Reported IC50 for CCC(CC)C(=O)Nc1ccc(N2CC3CC2CN3C(C(=O)N(CC)CC)c2ccccc2)c(F)c1 (centres unmarked) was 4000

Reported IC50 for CCN(CC)C(=O)C(c1ccccc1)N1CCN(c2ccc(/C(=N/O)C3CCCC3)cc2F)CC1 (centres unmarked) was 740

Reported IC50 for CCC(CC)C(=O)Nc1ccc(N2CCN(C(C(=O)OC)c3ccccc3)C(C(=O)OC)C2)c(F)c1 (single isomer, unassigned; diastereomer 1) [Example 269] was 2300

Reported IC50 for CCNC(=O)C(c1ccccc1)N1CCN(c2c(F)cc(NC(=O)[C@@H]3CCOC3)cc2F)CC1 (some centres unmarked) was 900

Reported IC50 for CCC(CC)C(=O)Nc1ccc(N2CCN(C(C(=O)N(CC)CC)c3ccccn3)CC2)c(F)c1 (centres unmarked) was 100

Reported IC50 for CCC(CC)NC(=O)Cc1ccc(N2CCN(C(C(=O)N3CCC(F)(F)C3)c3ccccc3)CC2)c(F)c1 (centres unmarked) was 2100

Reported IC50 for CCC(CC)C(=O)Nc1ccc(N2CCN(C(C(=O)N(CC)CC)c3ccccc3)CC2)c(Br)c1 (centres unmarked) was 80

Reported IC50 for CCN(CC)C(=O)C(c1ccccc1)N1CCN(c2ccc(NC(=O)C3CCCC3)cc2C)CC1 (centres unmarked) was 200

Reported IC50 for CCC(CC)C(=O)Nc1ccc(N2CCN(C(C(=O)N(CC)CC)c3ccccc3)CC2)cc1C#N (centres unmarked) was 1100
